system: RAW264.7; experiment: Antiinflammatory activity in mouse RAW264.7 cells assessed as inhibition of LPS-induced NO production after 24 hrs by Griess method; format: functional, cell-based; settings: RAW264.7, 24 h
log10 IC50: recorded values
Response schema: value (number) is log10 of IC50 in units of µM.

Sample records with log10 IC50:
compound | log10 IC50
C=C1CC[C@@H]2[C@](C)(CO)[C@H](O)CC[C@@]2(C)[C@@H]1C/C=C1/C(=O)OC[C@H]1O [ANDROGRAPHOLIDE] | 0.84
C[C@@]12CCC(=O)[C@@](C)(CO)[C@H]1CC=C(CO)[C@H]2CCC1=CCOC1=O | 1.85
C[C@@]12CCC(=O)[C@@](C)(CO)[C@H]1CCC(CO)=C2CCC1=CCOC1=O | 1.90
C=C1CC[C@H]2[C@@](C)(C[C@H](O)C(=O)[C@@]2(C)CO)[C@@H]1CCC1=CCOC1=O | 1.09
CN(C)c1ccc(O)c2c1C[C@H]1C[C@H]3[C@H](N(C)C)C(O)=C(C(N)=O)C(=O)[C@@]3(O)C(O)=C1C2=O [MINOCYCLINE] | 1.54
C=C1CC[C@H]2[C@@](C)(CCC(=O)[C@@]2(C)CO)[C@@H]1/C=C/C1=CCOC1=O | 1.88

What does the record list as log10 IC50 for C=C1CC[C@@H]2[C@](C)(CO)CCC[C@@]2(C)[C@@H]1CCC1=CCOC1=O [ANDROGRAPANIN] ? 1.06

====

viability at 24 h, 100 µM: recorded values
assay: Cytotoxicity against mouse RAW264.7 cells assessed as cell viability at 100 uM after 24 hrs by MTT assay; assay type: cell-based; details: read-out: Activity
All answers are understood in %, so give the number only.

molecular-string | viability at 24 h, 100 µM, %
CO[C@]1(CO)CC[C@@H]2[C@](C)(CO)[C@H](O)CC[C@@]2(C)[C@@H]1CCC1=CCOC1=O | 100
C[C@]1(CO)[C@H]2CC=C(CO)[C@@H](/C=C/C3=CCOC3=O)[C@]2(C)CC[C@H]1O | 106
C=C1[C@H](O)C[C@H]2[C@@](C)(CCC(=O)[C@@]2(C)CO)[C@@H]1CCC1=CCOC1=O | 102
C=C1CC[C@H]2[C@@](C)(C[C@H](O)C(=O)[C@@]2(C)CO)[C@@H]1CCC1=CCOC1=O | 103
C=C1CC[C@@H]2[C@](C)(CO)[C@H](O)CC[C@@]2(C)[C@@H]1C/C=C1/C(=O)OC[C@@H]1O | 65.2

What does the record list as viability at 24 h, 100 µM for C[C@@]1(CO)[C@H](O)CC[C@@]2(C)C(CCC3=CCOC3=O)=C(C=O)CC[C@H]12 ? 99.7

What does the record list as viability at 24 h, 100 µM for C=C1CC[C@H]2[C@@](C)(C=CC(=O)[C@@]2(C)CO)[C@@H]1CCC1=CCOC1=O ? 100

====

tested on: RAW264.7; assay: Antiinflammatory activity in mouse RAW264.7 cells assessed as inhibition of LPS-induced NO production after 24 hrs by Griess method; assay type: functional, cell-based; settings: RAW264.7, 24 h
readout-type: pIC50
Formally, pIC50 is defined as -log10 of the concentration c, with c in mol/L.

What does the record list as pIC50 for C[C@]1(CO)[C@H]2CC=C(CO)[C@@H](/C=C/C3=CCOC3=O)[C@]2(C)CC[C@H]1O ? 4.41

What does the record list as pIC50 for C=C1CC[C@@H]2[C@](C)(CO)[C@H](O)CC[C@@]2(C)[C@@H]1C/C=C1/C(=O)OC[C@@H]1O ? 4.58
